Origin of values: the supplement of paper PMC13380429

System: A549-ACE2 infected with SARS-CoV-2
Run description: cell count relative to DMSO; higher = less toxic
Run conditions: 0.3 µM; 24 h

[
  {
    "Compound": "Cc1ccc(C(=O)Nc2cccc(C(F)(F)F)c2)cc1Nc1nc(-c2cccnc2)nc2c1cnn2C",
    "Value units": "%",
    "cell count": 98
  },
  {
    "Compound": "CN1CCN(CCCN2c3ccccc3Sc3ccc(Cl)cc32)CC1",
    "Value units": "%",
    "cell count": 100
  },
  {
    "Compound": "CCN(CC)CC1CCN(c2ncc3ncnc(Nc4ccc(F)c(Cl)c4)c3n2)CC1",
    "Value units": "%",
    "cell count": 105
  },
  {
    "Compound": "C=CC(=O)N1CCN(C(=O)CNc2cc(I)c(Cl)cc2O)CC1 [K-Ras(G12C)-inhibitor-12]",
    "Value units": "%",
    "cell count": 109
  }
]
